Record: AC50 reported on Mu-type opioid receptor (Homo sapiens, UniProt P35372).
Sequence (P35372 whole entry): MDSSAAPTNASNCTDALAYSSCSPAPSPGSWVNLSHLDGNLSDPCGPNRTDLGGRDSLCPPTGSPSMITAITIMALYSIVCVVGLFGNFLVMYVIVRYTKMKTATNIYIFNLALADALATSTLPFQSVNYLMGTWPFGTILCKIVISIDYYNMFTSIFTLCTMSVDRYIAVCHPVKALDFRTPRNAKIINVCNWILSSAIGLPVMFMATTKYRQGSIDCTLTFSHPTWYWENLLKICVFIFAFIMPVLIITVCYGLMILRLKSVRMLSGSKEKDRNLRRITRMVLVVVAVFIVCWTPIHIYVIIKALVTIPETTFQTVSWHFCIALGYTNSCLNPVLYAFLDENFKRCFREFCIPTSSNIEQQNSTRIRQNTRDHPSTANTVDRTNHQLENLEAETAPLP

The cases that follow already have their AC50 on record.
[Q] Return reported AC50 for target or system Mu-type opioid receptor (Homo sapiens, UniProt P35372), item "O=C1CN=C(c2ccccc2)c2c(sc3c2CCCC3)N1" . Further: assay procedure not described here.
[A] > 30 µM

[Q] Return reported AC50 for target or system Mu-type opioid receptor (Homo sapiens, UniProt P35372), item "C(=N\NC1=NCCN1)/c1c2ccccc2c(/C=N/NC2=NCCN2)c2ccccc12" . Further: assay procedure not described here.
[A] 5.36 µM

[Q] Return reported AC50 for target or system Mu-type opioid receptor (Homo sapiens, UniProt P35372), item "OCCN1CCN(CCCN2c3ccccc3C=Cc3ccccc32)CC1" . Further: assay procedure not described here.
[A] 19.4 µM

[Q] Return reported AC50 for target or system Mu-type opioid receptor (Homo sapiens, UniProt P35372), item "O=[N+]([O-])c1cncn1CCN1CCOCC1" . Further: assay procedure not described here.
[A] > 30 µM

[Q] Return reported AC50 for target or system Mu-type opioid receptor (Homo sapiens, UniProt P35372), item "COc1ccc(-c2cc(=O)c3c(O)cc(O[C@@H]4O[C@H](CO[C@@H]5O[C@@H](C)[C@H](O)[C@@H](O)[C@H]5O)[C@@H](O)[C@H](O)[C@H]4O)cc3o2)cc1O" . Further: assay procedure not described here.
[A] > 30 µM

---
[Q] Return reported AC50 for target or system Mu-type opioid receptor (Homo sapiens, UniProt P35372), item "Cc1cc(O)cc(C)c1Cl" . Further: assay procedure not described here.
[A] > 30 µM

[Q] Return reported AC50 for target or system Mu-type opioid receptor (Homo sapiens, UniProt P35372), item "Nc1ccc(/N=N/c2ccccc2)c(N)n1" . Further: assay procedure not described here.
[A] > 30 µM

[Q] Return reported AC50 for target or system Mu-type opioid receptor (Homo sapiens, UniProt P35372), item NS(=O)(=O)c1cc2c(cc1Cl)NC(CC1CCCC1)NS2(=O)=O (stereo not drawn) [CYCLOPENTHIAZIDE] . Further: assay procedure not described here.
[A] > 30 µM

* * *

Biological target: Muscarinic acetylcholine receptor M1 (Homo sapiens, UniProt P11229); further: assay procedure not described here
Sequence (P11229 whole entry): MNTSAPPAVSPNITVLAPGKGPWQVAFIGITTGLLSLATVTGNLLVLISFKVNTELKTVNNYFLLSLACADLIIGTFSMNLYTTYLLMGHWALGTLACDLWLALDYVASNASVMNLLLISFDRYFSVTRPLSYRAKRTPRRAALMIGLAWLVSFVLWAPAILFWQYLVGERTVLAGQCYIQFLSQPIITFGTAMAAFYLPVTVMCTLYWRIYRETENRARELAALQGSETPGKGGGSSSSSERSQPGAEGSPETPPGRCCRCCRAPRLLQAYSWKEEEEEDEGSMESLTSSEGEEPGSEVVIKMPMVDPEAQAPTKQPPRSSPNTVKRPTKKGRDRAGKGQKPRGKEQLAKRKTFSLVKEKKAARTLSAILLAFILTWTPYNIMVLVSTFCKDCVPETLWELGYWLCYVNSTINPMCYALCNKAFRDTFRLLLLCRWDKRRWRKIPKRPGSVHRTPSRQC
Format: functional, cell-based
value.kind: AC50

[Q] State its AC50 for this compound: "C[C@@H]1O[C@@H](OC[C@H]2O[C@@H](Oc3c(-c4ccc(OCCO)c(OCCO)c4)oc4cc(OCCO)cc(O)c4c3=O)[C@H](O)[C@@H](O)[C@@H]2O)[C@H](O)[C@H](O)[C@H]1O"
[A] > 30 µM

[Q] State its AC50 for this compound: CCC(Cc1c(I)cc(I)c(N)c1I)C(=O)O (stereo not drawn)
[A] 14.5 µM

[Q] State its AC50 for this compound: CC(C)Cc1ccc(C(C)C(=O)NO)cc1 (stereo not drawn)
[A] 20.1 µM

[Q] State its AC50 for this compound: O=C1NCC2(CCN(CCc3ccccc3)CC2)O1 [FENSPIRIDE]
[A] > 30 µM

---
[Q] State its AC50 for this compound: "Nc1ccc(C(=O)O)cc1"
[A] > 30 µM

[Q] State its AC50 for this compound: COc1cc2c(cc1OC)C(=O)C(CC1CCN(Cc3ccccc3)CC1)C2 (stereo not drawn)
[A] 5.32 µM

[Q] State its AC50 for this compound: CC(=O)OC[C@H]1O[C@@H](n2ccc(=O)[nH]c2=O)[C@H](OC(C)=O)[C@@H]1OC(C)=O [URIDINE TRIACETATE]
[A] > 30 µM

* * *

Record: AC50 reported on Adenosine receptor A1 (Homo sapiens).

The cases that follow already have their AC50 on record.
[Q] State its AC50 for this compound: CN1C(=O)CC(C)(c2ccccc2)C1=O (centres undefined) [METHSUXIMIDE]
[A] > 10 µM

[Q] State its AC50 for this compound: NS(=O)(=O)c1cc(-c2nnn[nH]2)c(NCc2cccs2)cc1Cl [AZOSEMIDE]
[A] > 30 µM

[Q] State its AC50 for this compound: "C[C@]12CCC(=O)C=C1CC[C@@H]1[C@@H]2CC[C@@]2(C)[C@H]1CC[C@]2(C)O"
[A] > 30 µM

---
[Q] State its AC50 for this compound: O=C(C[S+]([O-])C(c1ccccc1)c1ccccc1)NO (centres undefined)
[A] > 30 µM

[Q] State its AC50 for this compound: "O=C(O)Cc1cn(-c2ccccc2)nc1-c1ccc(Cl)cc1"
[A] > 30 µM

[Q] State its AC50 for this compound: CCC(C(=O)O)c1ccc(CC(C)C)cc1 (centres undefined)
[A] > 30 µM

[Q] State its AC50 for this compound: CC(C)C(=O)Nc1ccc([N+](=O)[O-])c(C(F)(F)F)c1 [FLUTAMIDE]
[A] > 30 µM

[Q] State its AC50 for this compound: "Cc1ccc(C(=O)c2cc(O)c(O)c([N+](=O)[O-])c2)cc1"
[A] 15.6 µM

[Q] State its AC50 for this compound: NC(=O)C[S+]([O-])C(c1ccccc1)c1ccccc1 (centres undefined)
[A] > 30 µM

[Q] State its AC50 for this compound: Cc1cc2c(OCC(CNC(C)(C)C)OC(=O)c3ccccc3)cccc2[nH]1 (centres undefined)
[A] > 30 µM

[Q] State its AC50 for this compound: "CO/N=C(\C(=O)N[C@@H]1C(=O)N2C(C(=O)[O-])=C(C[N+]3(C)CCCC3)CS[C@H]12)c1csc(N)n1"
[A] > 300 µM

[Q] State its AC50 for this compound: O=C(Nc1ccccc1)OCC(CN1CCCCC1)OC(=O)Nc1ccccc1 (centres undefined)
[A] > 30 µM

[Q] State its AC50 for this compound: Cc1cccc(C)c1NC(=O)C1CCCCN1C (centres undefined) [MEPIVACAINE]
[A] > 30 µM

[Q] State its AC50 for this compound: "O=C(O)CCCc1ccccc1"
[A] > 10 µM

[Q] State its AC50 for this compound: "CN(C)CCCN1c2ccccc2Sc2ccccc21"
[A] > 30 µM

* * *

Molecular target: Adenosine receptor A1 (Homo sapiens, UniProt P30542); further: assay procedure not described here
Sequence (P30542 whole entry): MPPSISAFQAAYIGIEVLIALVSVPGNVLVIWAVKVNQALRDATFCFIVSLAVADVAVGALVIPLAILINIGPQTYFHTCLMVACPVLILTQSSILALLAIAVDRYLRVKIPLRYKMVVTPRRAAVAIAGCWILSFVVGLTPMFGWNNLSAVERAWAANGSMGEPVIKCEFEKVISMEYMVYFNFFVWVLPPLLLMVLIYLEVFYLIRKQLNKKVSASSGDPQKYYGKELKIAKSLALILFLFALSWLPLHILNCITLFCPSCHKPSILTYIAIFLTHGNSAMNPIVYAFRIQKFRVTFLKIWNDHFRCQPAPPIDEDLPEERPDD
compounds and their reported AC50

The cases that follow already have their AC50 on record.
[Q] State its AC50 for this compound: CN(CCOc1ccc(NS(C)(=O)=O)cc1)CCc1ccc(NS(C)(=O)=O)cc1 [DOFETILIDE]
[A] > 30 µM

[Q] State its AC50 for this compound: "Cc1c(O)c(=O)ccn1C"
[A] > 30 µM

[Q] State its AC50 for this compound: "C#CCN(C)[C@H](C)Cc1ccccc1"
[A] > 10 µM

[Q] State its AC50 for this compound: CN1C(=O)CC(c2ccccc2)C1=O (configuration not stated) [PHENSUXIMIDE]
[A] > 10 µM

[Q] State its AC50 for this compound: "O=C(O)CCn1c2c(c3ccccc31)C[C@H](NS(=O)(=O)c1ccc(F)cc1)CC2"
[A] > 30 µM

---
[Q] State its AC50 for this compound: CC(Cc1ccccc1)NCCC(c1ccccc1)c1ccccc1 (configuration not stated)
[A] > 30 µM

[Q] State its AC50 for this compound: "Cc1cc(-c2ccccc2)nnc1NCCN1CCOCC1"
[A] > 30 µM

[Q] State its AC50 for this compound: "CCc1nn(CCCN2CCN(c3cccc(Cl)c3)CC2)c(=O)n1CCOc1ccccc1"
[A] > 30 µM

* * *

Target: 3',5'-cyclic-AMP phosphodiesterase 4D (Homo sapiens, UniProt Q08499); further: assay procedure not described here
Sequence (Q08499 whole entry): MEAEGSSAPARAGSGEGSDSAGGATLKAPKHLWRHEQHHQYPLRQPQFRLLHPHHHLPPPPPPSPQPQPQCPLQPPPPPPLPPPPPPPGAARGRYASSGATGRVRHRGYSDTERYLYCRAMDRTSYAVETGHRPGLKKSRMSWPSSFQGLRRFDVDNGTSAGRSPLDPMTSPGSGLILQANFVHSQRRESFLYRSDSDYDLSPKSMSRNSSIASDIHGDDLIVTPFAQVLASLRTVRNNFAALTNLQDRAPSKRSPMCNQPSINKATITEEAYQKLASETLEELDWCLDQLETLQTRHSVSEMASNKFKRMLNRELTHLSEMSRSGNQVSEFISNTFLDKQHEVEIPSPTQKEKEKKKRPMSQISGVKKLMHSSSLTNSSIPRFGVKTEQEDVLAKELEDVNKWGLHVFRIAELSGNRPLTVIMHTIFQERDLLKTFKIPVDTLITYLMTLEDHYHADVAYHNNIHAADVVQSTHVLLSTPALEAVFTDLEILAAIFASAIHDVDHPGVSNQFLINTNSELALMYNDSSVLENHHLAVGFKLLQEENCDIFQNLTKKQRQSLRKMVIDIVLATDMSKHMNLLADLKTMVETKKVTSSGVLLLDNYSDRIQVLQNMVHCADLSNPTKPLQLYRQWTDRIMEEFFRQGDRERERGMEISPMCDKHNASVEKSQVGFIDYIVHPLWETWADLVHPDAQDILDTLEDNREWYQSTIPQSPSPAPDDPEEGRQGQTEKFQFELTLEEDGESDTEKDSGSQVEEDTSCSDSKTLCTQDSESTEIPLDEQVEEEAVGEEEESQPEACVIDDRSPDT
Format: functional
compounds and their reported AC50

[Q] State its AC50 for this compound: COc1ccc(C(=O)N2CCN(c3ccc4c(c3)CCC(=O)N4)CC2)cc1OC [VESNARINONE]
[A] > 30 µM

[Q] State its AC50 for this compound: CCCC(CCC)C(=O)O[C@H]1C[C@H]2CC[C@@H](C1)[N+]2(C)C [ANISOTROPINE]
[A] > 30 µM

[Q] State its AC50 for this compound: C#CCN(C)[C@H](C)Cc1ccccc1 [SELEGILINE]
[A] > 30 µM

[Q] State its AC50 for this compound: COc1ccc2c(c1)c(CC(=O)OCC(=O)O)c(C)n2C(=O)c1ccc(Cl)cc1 [ACEMETACIN]
[A] > 30 µM

Then there is this compound:
[Q] State its AC50 for this compound: C[C@H]1C[C@@H]2[C@H]([C@@H](O)C[C@@]3(C)[C@H]2CC[C@]3(O)C(=O)COC(=O)CCC(=O)O)[C@@]2(C)C=CC(=O)C=C12 [METHYLPREDNISOLONE HEMISUCCINATE]
[A] > 30 µM
